For each of the binders below, state its cAMP EC50 (0.1% casein).
- target_or_test_system: T1, human GLP-1 receptor (human), P43220
- T1 chain: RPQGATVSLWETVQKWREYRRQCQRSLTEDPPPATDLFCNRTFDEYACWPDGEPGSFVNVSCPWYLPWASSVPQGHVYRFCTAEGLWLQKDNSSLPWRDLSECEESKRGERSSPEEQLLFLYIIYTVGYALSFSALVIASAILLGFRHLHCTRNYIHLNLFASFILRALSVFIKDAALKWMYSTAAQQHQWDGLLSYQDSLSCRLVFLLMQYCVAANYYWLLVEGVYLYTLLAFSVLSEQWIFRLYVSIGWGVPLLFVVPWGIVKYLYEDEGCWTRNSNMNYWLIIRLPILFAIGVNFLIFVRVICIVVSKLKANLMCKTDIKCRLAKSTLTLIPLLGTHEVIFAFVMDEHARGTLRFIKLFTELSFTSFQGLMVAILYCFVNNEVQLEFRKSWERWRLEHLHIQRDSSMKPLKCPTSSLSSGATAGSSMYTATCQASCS
- assay_name: cell-based or functional assay
*1 amine or outer side, *2 acyl side, *3 side chain or, on linkers, in order; H or OH if unused. Where no end group is shown, it is not given here. Side-chain parts run from the residue outwards. [ ]: non-standard residue; d: D form. The star is where a group is joined. C20 diacid = O=C(O)CCCCCCCCCCCCCCCCCCC(=O)*; γGlu = O=C(O)[C@H](CCC(=O)[*:2])N[*:1]; αMeL = CC(C)C[C@](C)(N)C(=O)O; αMeK = C[C@](N)(CCCCN)C(=O)O; AEEA = NCCOCCOCC(=O)O; Aib = CC(C)(N)C(=O)O
Write the number in nM without appending the unit.

What cAMP EC50 (0.1% casein) value was documented for this binder, Y[Aib]QGTFTSDYSI[αMeL]LDKK([AEEA-AEEA-γGlu-C20 diacid])AQHAFIEYLLEGGPSSGAPPPS-NH2 [Example 7] ?
0.109

What cAMP EC50 (0.1% casein) value was documented for this binder, Y[Aib]QGTFTSDYSILLDKK([AEEA-AEEA-γGlu-C20 diacid])AQ[Aib]AFIEYLLEGGPSSGAPPPS-NH2 [Example 16] ?
0.157

What cAMP EC50 (0.1% casein) value was documented for this binder, Y[Aib]QGTFTSDYSI[αMeL]LDKK([AEEA-AEEA-γGlu-C20 diacid])AQ[αMeK]AFIEYLLEGGPSSGAPPPS-NH2 [Example 3] ?
0.107
